IC50 overview
- experimental_system: Recombinant human CBP containing the bromodomain (CBP-BD (1043-1159)) (Homo sapiens)
- Construct: Recombinant human CBP bromodomain (CBP-BD (1043-1159))
- Sequence (Q92793 1081-1197): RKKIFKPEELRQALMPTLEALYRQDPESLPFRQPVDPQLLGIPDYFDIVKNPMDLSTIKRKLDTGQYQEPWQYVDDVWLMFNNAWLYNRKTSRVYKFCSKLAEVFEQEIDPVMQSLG
- assay_comment: CBP Alphascreen binding assay
- experimental_conditions: read-out: CREBBP (CBP) IC50

Below, 5 compounds whose answers are already recorded.
compound: CCOc1cc(O)c(C(=O)O)cc1-c1cn(-c2ccc(F)cc2F)c2ncc(-c3c(C)noc3C)cc12 [P-0249]
experimental_system: Recombinant human CBP containing the bromodomain (CBP-BD (1043-1159)) (Homo sapiens)
IC50: 0.1 to 1000 nM
--
compound: Cc1noc(C)c1-c1cnc2c(c1)c(-c1ccc(C(=O)O)cc1OC(F)(F)F)cn2CCN1CCOCC1 [P-0191]
experimental_system: Recombinant human CBP containing the bromodomain (CBP-BD (1043-1159)) (Homo sapiens)
IC50: 0.1 to 1000 nM
--
compound: Cc1noc(C)c1-c1cnc2c(c1)c(-c1ccc(C(=O)O)c(O)c1)cn2C(c1ccccn1)C1CCCC1 (centres unmarked) [P-0030]
experimental_system: Recombinant human CBP containing the bromodomain (CBP-BD (1043-1159)) (Homo sapiens)
IC50: 1000 to 8000 nM
--
compound: COc1ccc(-n2cc(-c3ccc(C(=O)O)cc3OC(F)(F)F)c3cc(-c4c(C)noc4C)cnc32)c(F)c1 [P-0311]
experimental_system: Recombinant human CBP containing the bromodomain (CBP-BD (1043-1159)) (Homo sapiens)
IC50: 0.1 to 1000 nM
--
compound: CCOc1cc(C(=O)O)cc(F)c1-n1cc(CC2CCC2)c2ncc(-c3c(C)noc3C)cc21 [P-0108]
experimental_system: Recombinant human CBP containing the bromodomain (CBP-BD (1043-1159)) (Homo sapiens)
IC50: 0.1 to 1000 nM

For the compound Cc1noc(C)c1-c1cnc2c(c1)c(-c1cccc(C(=O)NS(C)(=O)=O)c1)cn2Cc1ccccc1 [P-0092] , what IC50 is on record? 1000 to 8000 nM

May I ask what IC50 has been recorded for Cc1noc(C)c1-c1cnc2c(c1)c(-c1ccc(C(=O)O)cc1)cn2C(c1ccccn1)C1CCC1 (centres unmarked) [P-0008] ? 0.1 to 1000 nM

Query: IC50; subject: CCOc1cc(C(=O)O)cc(OCC)c1-n1cc(CC2CCC2)c2ncc(-c3c(COC)noc3C)cc21 [P-0210] 0.1 to 1000 nM
